Test system: basal pERK in MDA-MB-231 cells
Assay: Bio-Plex phospho-ERK1/2 immunoassay
Type: cell-based, human
Details: Homo sapiens; MDA-MB-231 cells, 2 h

smiles repr	IC50 [nM]
CNC(=O)c1cc(Oc2ccc(NC(=O)Nc3ccc(Cl)c(C(F)(F)F)c3)c(F)c2)ccn1	22

# credit: patent US20130183268A1
